Assay: Drug concentration in C57BL/6 mouse plasma at 3 mg/kg, po measured after 1 hr
Type: ADME, organism-based
QUANTITY NAME: concentration at 1 h (nM)
// note: answer is a bare numeric in nM

Query block: Looking for the measured concentration at 1 h of C[C@@H]1COCCN1c1cc(N2CCOC[C@@H]2C)nc2[nH]c(-c3cscn3)nc12 , can you help?
Result block: 2750

====

Test: Apparent permeability across basolateral to apical side in MDCK-MDR1 cells
Assay type: ADME, cell-based, Canis lupus familiaris
Conditions: dog
QUANTITY NAME: Papp B→A (nm/s)
// note: answer is a bare numeric in nm/s

See these solved cases before continuing.
[
  {
    "QUERY SMILES": "C[C@@H]1COCCN1c1cc(N2C3CCC2COC3)nc2[nH]c(-c3ccccn3)nc12",
    "QUANTITY NAME": "Papp B→A",
    "VALUE UNIT": "nm/s",
    "VALUE REPORTED": 80.4
  },
  {
    "QUERY SMILES": "C[C@@H]1COCCN1c1cc(N2CCOC[C@@H]2C)nc2[nH]c(-c3cc[nH]n3)nc12",
    "QUANTITY NAME": "Papp B→A",
    "VALUE UNIT": "nm/s",
    "VALUE REPORTED": 400
  },
  {
    "QUERY SMILES": "C[C@@H]1COCCN1c1cc(N2CCOC[C@@H]2C)nc2[nH]c(-c3nccs3)nc12",
    "QUANTITY NAME": "Papp B→A",
    "VALUE UNIT": "nm/s",
    "VALUE REPORTED": 82.4
  },
  {
    "QUERY SMILES": "C[C@@H]1COCCN1c1cc(N2CCOC[C@@H]2C)nc2[nH]c(-c3cc(O)ccc3F)nc12",
    "QUANTITY NAME": "Papp B→A",
    "VALUE UNIT": "nm/s",
    "VALUE REPORTED": 155
  },
  {
    "QUERY SMILES": "C[C@@H]1COCCN1c1cc(N2CCOC[C@@H]2C)nc2[nH]c(-c3ccccn3)nc12",
    "QUANTITY NAME": "Papp B→A",
    "VALUE UNIT": "nm/s",
    "VALUE REPORTED": 201
  },
  {
    "QUERY SMILES": "C[C@@H]1COCCN1c1cc(N2CCOC[C@@H]2C)nc2[nH]c(-c3cscn3)nc12",
    "QUANTITY NAME": "Papp B→A",
    "VALUE UNIT": "nm/s",
    "VALUE REPORTED": 120
  }
]

Query block: Looking for the measured Papp B→A of C[C@@H]1COCCN1c1nc(N2CCOC[C@@H]2C)nc2sc(-c3cc[nH]n3)nc12 , can you help?
Result block: 254
